- test.method.notes: Dimensions (size, PDI) of DNPs co-assembled from IAJDs and Luc-mRNA by DLS
- Format: physicochemical
- measurement.parameters: Table 12; DNPs, IAJD 4 mg/mL + Luc-mRNA 0.10 mg/mL, acetate buffer 10 mM pH 4.0
property.measured: PDI

For this molecule ( `CCCCCCCCCOc1cc(COC(=O)CCCN2CCN(C)CC2)cc(OCCCCCCCCC)c1` ), measured PDI is 0.267

For this molecule ( `CCCCCCCCOc1cc(COC(=O)CCCN2CCN(C)CC2)cc(OCCCCCCCC)c1` ), measured PDI is 0.342

For this molecule ( `CCCCCCCCCCCCCCCCOc1cc(COC(=O)CCCN2CCN(C)CC2)cc(OCCCCCCCCCCCC)c1` ), measured PDI is 0.275

For this molecule ( `CCCCCCCCCCCCCCCCOc1cc(COC(=O)CCCN2CCN(C)CC2)cc(OCCCCCCCCCCC)c1` ), measured PDI is 0.234

For this molecule ( `CCCCCCCCCCCCOc1cc(COC(=O)CCCN2CCCCC2)cc(OCCCCCCCCCCCC)c1` ), measured PDI is 0.249

For this molecule ( `CCCCCCCOC(=O)CCCCOc1cc(COC(=O)CCCN2CCN(C)CC2)cc(OCCCCC(=O)OCCCCCCC)c1` ), measured PDI is 0.250

For this molecule ( `CCCCCCCCCCCCCCOc1cc(COC(=O)CCCN2CCN(C)CC2)cc(OCCCCCCCCCCCCCC)c1` ), measured PDI is 0.317

For this molecule ( `CCCCCCCCCCCCCCCCCCOc1cc(COC(=O)CCCN2CCN(CCO)CC2)cc(OCCCCCCCCCCCCCCCCCC)c1` ), measured PDI is 0.571

----------
- test.method.notes: Stability of DNPs by DLS after storage at 5° C.
- Type: physicochemical
- measurement.parameters: DNPs: IAJD 4.0 mg/mL + Luc-mRNA 0.1 mg/mL, injection in acetate buffer pH 4.00
- Method: The stability of the DNPs as assayed by DLS. All the samples are prepared in acetate buffer. […]
property.measured: pH Sample
Hey, just send me the number, nothing else.

For this molecule ( `CCCCCCCCCCCCCCCCCOc1cc(COC(=O)CCCN2CCN(C)CC2)cc(OCCCCCCCCCCCCCCC)c1` ), measured pH Sample is 4.57

For this molecule ( `CCCCCCCCCCCCCCCOc1cc(COC(=O)CCCN2CCN(CCO)CC2)cc(OCCCCCCCC)c1` ), measured pH Sample is 4.52

For this molecule ( `CCCCCCCCCCCCCCCOc1cc(COC(=O)CCCN2CCN(CCO)CC2)cc(OCCCCCCCCCCCCCC)c1` ), measured pH Sample is 4.46

For this molecule ( `CCCCCCCCCCCCCCOc1cc(COC(=O)CCCN2CCN(C)CC2)cc(OCCCCCCCCCCCCC)c1` ), measured pH Sample is 4.88

For this molecule ( `CCCCCCCCCCCCCCCCOc1cc(COC(=O)CCCN2CCN(CCO)CC2)cc(OCCCCCCCCCCCCCCC)c1` ), measured pH Sample is 4.51

For this molecule ( CCCCCCCCCCCCCOc1cc(COC(=O)CCCN2CCN(C)CC2)cc(OCC(CC)CCCC)c1 (centres unmarked) ), measured pH Sample is 4.97

For this molecule ( CCCCCCCCCCCOc1cc(COC(=O)CCCN2CCN(CCO)CC2)cc(OCC(CC)CCCC)c1 (centres unmarked) ), measured pH Sample is 4.50

For this molecule ( `CCCCCCCCCCCCCCCCCCOc1cc(COC(=O)CCCN2CCN(C)CC2)cc(OCCCCCCCCCCCCCCC)c1` ), measured pH Sample is 4.52

For this molecule ( `CCCCCCCCCCCOc1cc(COC(=O)CCCN2CCN(CCO)CC2)cc(OCCCCCCCCCC)c1` ), measured pH Sample is 4.44

For this molecule ( `CCCCCCCCCCCCCCOc1cc(COC(=O)CCCN2CCN(CCO)CC2)cc(OCCCCCCCCCCC)c1` ), measured pH Sample is 4.44

For this molecule ( `CCCCCCCCCCCOc1cc(COC(=O)CCCN2CCN(CCO)CC2)cc(OCCCCCCCC)c1` ), measured pH Sample is 4.48

For this molecule ( `CCCCCCCCCCCCCCOc1cc(COC(=O)CCCN2CCN(CCO)CC2)cc(OCCCCCCCCCCCCC)c1` ), measured pH Sample is 4.84

For this molecule ( `CCCCCCCCCCCCCCCCOc1cc(COC(=O)CCCN2CCN(C)CC2)cc(OCCCCCCCCCCCCC)c1` ), measured pH Sample is 4.79

For this molecule ( `CCCCCCCCCCCCCCCCCCOc1cc(COC(=O)CCCN2CCN(CCO)CC2)cc(OCCCCCCCCCCC)c1` ), measured pH Sample is 4.40

For this molecule ( `CCCCCCCCCCCCCCCCCOc1cc(COC(=O)c2cc(OCCOCCOCCCC(=O)CCCN3CCCCC3)c(OCCOCCOCCOCc3ccccc3)c(OCCOCCOCCOC(=O)CCCN3CCCCC3)c2)cc(OCCCCCCCCCCC)c1` ), measured pH Sample is 4.83

For this molecule ( `CCCCCCCCCCCCCCCOc1cc(COC(=O)c2cc(OCCOCCOCCCC(=O)CCCN3CCCCC3)c(OCCOCCOCCOCc3ccccc3)c(OCCOCCOCCOC(=O)CCCN3CCCCC3)c2)cc(OCCCCCCCCCCC)c1` ), measured pH Sample is 4.84

For this molecule ( `CCCCCCCCCCCCCOc1cc(COC(=O)CCCN2CCN(CCO)CC2)cc(OCCCCCCCCCCC)c1` ), measured pH Sample is 4.40

For this molecule ( `CCCCCCCCCCCOc1cc(COC(=O)CCCN2CCN(C)CC2)cc(OCCCCCCCCCC)c1` ), measured pH Sample is 4.46

For this molecule ( `CCCCCCCCCCCCCCCOc1cc(COC(=O)CCCN2CCN(CCO)CC2)cc(OCCCCCCCCCC)c1` ), measured pH Sample is 4.52

For this molecule ( `CCCCCCCCCCCCOc1cc(COC(=O)CCCN2CCN(CCO)CC2)cc(OCCCCCCCCCCC)c1` ), measured pH Sample is 4.51

For this molecule ( CCCCCCCCCCCCCCCOc1cc(COC(=O)CCCN2CCN(CCO)CC2)cc(OCC(CC)CCCC)c1 (centres unmarked) ), measured pH Sample is 4.57

For this molecule ( CCCCCCCCCCCCCOc1cc(COC(=O)CCCN2CCN(CCO)CC2)cc(OCC(CC)CCCC)c1 (centres unmarked) ), measured pH Sample is 4.66

For this molecule ( `CCCCCCCCCCCCCCCOc1cc(COC(=O)CCCN2CCN(CCO)CC2)cc(OCCCCCCCCCCC)c1` ), measured pH Sample is 4.36

For this molecule ( `CCCCCCCCCCCCCCCCCOc1cc(COC(=O)CCCN2CCN(CCO)CC2)cc(OCCCCCCCCCCC)c1` ), measured pH Sample is 4.46

For this molecule ( `CCCCCCCCCCCCCCCCCCOc1cc(COC(=O)CCCN2CCN(CCO)CC2)cc(OCCCCCCCCCCCCCCC)c1` ), measured pH Sample is 4.47

For this molecule ( `CCCCCCCCCCCOc1cc(COC(=O)c2cc(OCCOCCOCCCC(=O)CCCN3CCCCC3)c(OCCOCCOCCOCc3ccccc3)c(OCCOCCOCCOC(=O)CCCN3CCCCC3)c2)cc(OCCCCCCCCCCC)c1` ), measured pH Sample is 4.84

For this molecule ( `CCCCCCCCCCCCCCCOc1cc(COC(=O)CCCN2CCN(C)CC2)cc(OCCCCCCCCCCCC)c1` ), measured pH Sample is 4.48

For this molecule ( `CCCCCCCCCCCCCCCOc1cc(COC(=O)CCCN2CCN(CCO)CC2)cc(OCCCCCCCCCCCCC)c1` ), measured pH Sample is 4.40

For this molecule ( `CCCCCCCCCCCCCCCCCCOc1cc(COC(=O)CCCN2CCN(CCO)CC2)cc(OCCCCCCCCCCCCC)c1` ), measured pH Sample is 4.58

----------
- test.method.notes: Stability of DNPs by DLS after storage at 5° C.
- Type: physicochemical
- Set-up: key: U: DLS curve showed unimodal size distribution; B: DLS curve showed bimodal size distribution; M: DLS curve showed multimodal size distribution
- measurement.parameters: after 21 days at 5° C.
property.measured: Size distribution type (DLS curve)

Some solved cases for reference:
[
  {
    "molecule": "CCCCCCCCCCCCCCCCCCOc1cc(COC(=O)CCCN2CCN(C)CC2)cc(OCCCCCCCCCCCCC)c1 [IAJD 177]",
    "Size distribution type (DLS curve)": "(B)"
  },
  {
    "molecule": "CCCCCCCCCCCCCCCCCCOc1cc(COC(=O)CCCN2CCN(CCO)CC2)cc(OCCCCCCCCCCCCC)c1 [IAJD 178]",
    "Size distribution type (DLS curve)": "(U)"
  },
  {
    "molecule": "CCCCCCCCCCCCCOc1cc(COC(=O)CCCN2CCN(CCO)CC2)cc(OCC(CC)CCCC)c1 (stereo not drawn) [IAJD 162]",
    "Size distribution type (DLS curve)": "(B)"
  },
  {
    "molecule": "CCCCCCCCCCCCCCOc1cc(COC(=O)CCCN2CCN(C)CC2)cc(OCCCCCCCCCCCCC)c1 [IAJD 171]",
    "Size distribution type (DLS curve)": "(U)"
  },
  {
    "molecule": "CCCCCCCCCCCCCCCCOc1cc(COC(=O)CCCN2CCN(C)CC2)cc(OCCCCCCCCCCCCC)c1 [IAJD 173]",
    "Size distribution type (DLS curve)": "(B)"
  }
]

Attention now turns to another entry.
For this molecule ( CCCCCCCCCCCCCOc1cc(COC(=O)CCCN2CCN(C)CC2)cc(OCC(CC)CCCC)c1 (stereo not drawn) [IAJD 161] ), measured Size distribution type (DLS curve) is (U)
